Attribution: patent US10399933B2

# IC50 annotations
Molecular target: human IDO1 (Homo sapiens)
Sequence (P14902 whole entry): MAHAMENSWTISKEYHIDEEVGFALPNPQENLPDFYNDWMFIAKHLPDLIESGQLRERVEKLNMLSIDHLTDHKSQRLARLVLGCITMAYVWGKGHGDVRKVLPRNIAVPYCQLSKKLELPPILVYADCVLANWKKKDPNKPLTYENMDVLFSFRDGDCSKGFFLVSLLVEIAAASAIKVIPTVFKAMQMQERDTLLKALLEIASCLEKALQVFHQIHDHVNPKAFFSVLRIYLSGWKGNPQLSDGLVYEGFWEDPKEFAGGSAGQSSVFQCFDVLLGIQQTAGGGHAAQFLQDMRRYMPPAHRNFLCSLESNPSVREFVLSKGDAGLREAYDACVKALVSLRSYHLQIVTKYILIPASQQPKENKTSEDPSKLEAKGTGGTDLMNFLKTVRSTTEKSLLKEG
Experiment: Human IDO-1 inhibitory activity in Hela cells (interferon-gamma stimulated)
Type: cell-based
Design: endogenous in cells; host or cells: HeLa cells stimulated with interferon-gamma
Settings: 18 hours, unstimulated wells = 100% inhibition
Experimental: HeLa cells were seeded at 20,000 cells per 30 μL per well with RPMI/phenol red free media containing 10% FBS in a 384-well tissue culture plate (black with clear bottoms). 50 nL of compound was added to cells and incubated at 37° C. for one hour. […] Compound treatment was stopped by adding 5 μl trichloroacetic acid to a final concentration of 3%. […] Absorbance at 490 nm was measured on Envision plate reader. […]
measurement.kind: IC50

compound | measurement.kind | observed.measurement
CCN(c1ccc([C@H](COC)CC(=O)O)cc1Nc1cccc(C#N)c1)C1CCOCC1 (single isomer, unassigned) | IC50 | > 50 nM
CCN(c1ccc([C@H](COC)CC(=O)O)cc1Nc1ccccc1C#N)C1CCOCC1 (single isomer, unassigned) | IC50 | > 50 nM
CCN(c1ccc(C(COC)CC(=O)O)cc1Nc1ccc(C#N)cc1)C1CCCOC1 (single isomer, unassigned) [265 E1] | IC50 | < 5 nM
CCC(CC(=O)O)c1ccc(N2CCNCC2)c(Nc2ccc(C#N)cc2)c1 (single isomer, unassigned) [Example 671 Enantiomer 2] | IC50 | > 50 nM
CCN(c1ccc(C(COC)CC(=O)O)cc1Nc1ccc(C#N)cc1)C1CCCOC1 (single isomer, unassigned) [264 E2] | IC50 | < 5 nM
CCN(c1ccc(C(COC)CC(=O)O)cc1Nc1ccc(C#N)cc1)C1CCCOC1 (single isomer, unassigned) [264 E1] | IC50 | < 50 nM
CCN(c1ccc(C(COC(C)C)CC(=O)O)cc1Nc1ccc(F)cc1)C1CCS(=O)(=O)CC1 (stereo not shown) | IC50 | < 50 nM
CCN(c1cc(F)c(C(COC)CC(=O)O)cc1Nc1ccc(C#N)cc1F)C1CCOCC1 (single isomer, unassigned) | IC50 | < 5 nM
COC[C@@H](CC(=O)O)c1ccc(N2CCOc3ccccc32)c(Nc2ccc(C#N)cc2)c1 (single isomer, unassigned) | IC50 | > 50 nM
CCN(c1ccc([C@H](COC)CC(=O)O)cc1Nc1ncc(F)cn1)C1CCOCC1 (single isomer, unassigned) | IC50 | > 50 nM
COCC(CC(=O)O)c1ccc(N2C[C@@H](C)O[C@@H](C)C2)c(NC(=O)Nc2ccc(Cl)cc2F)c1 (single isomer, unassigned) | IC50 | > 50 nM
CCCN(c1ccc(C(COC)CC(=O)O)cc1Nc1ccc(C#N)cc1)C1CCS(=O)(=O)CC1 (single isomer, unassigned) [Example 182 Enantiomer 2] | IC50 | > 50 nM
CC(CC(=O)O)c1ccc(N2C[C@@H](C)O[C@@H](C)C2)c(NC(=O)Nc2ccc(Cl)cc2F)c1 (single isomer, unassigned) [Example 749 Enantiomer 2] | IC50 | > 50 nM
